- Test system: Mycosphaerella graminicola; Anamorph: Septoria tritici; Bayer Code SEPTTR
- Procedure Text: Leaf blotch of wheat, foliar fungicide treatment, one day protectant (1DP) or three day curative (3DC)
- Type: in vivo, Septoria tritici on wheat plants (variety Yuma)
- Run Conditions: Zymoseptoria tritici, 24 h, one day protectant (1DP), 100 ppm, rating of percent disease control, read-out: SEPTTR 1DP 100 ppm
Each entry below lists one item and its recorded pest or weed control at 100 ppm value.
Recorded Metric: pest or weed control at 100 ppm

• Nc1nc(OS(=O)(=O)c2cccs2)ncc1F = 76 to 100%
• C/C(=N\Oc1ncc(F)c(/N=C/N(C)C)n1)c1ccccc1 = 76 to 100%
• CCCNC(=O)Nc1nc(OCc2cccs2)ncc1F = 0 to 25%
• CCOCNc1nc(OCc2cccc(F)c2)ncc1F = 76 to 100%
